Let's look at some molecules and their measured ED50.
Test system: Male, Sprague-Dawley rats
Experiment: Maximal Electroshock Assay (rat)
Format: in vivo
Conditions: read-out: MES oral ED50 4h; rat, oral pretreatment, electroshock 4h post dose; range in parentheses
Give the quantity in mg/kg, number only.

| Molecule | Measurement Type | Quantitative Readout |
| --- | --- | --- |
| CC(=O)NC(COC(F)F)C(=O)NCc1ccc(F)cc1 (stereo not shown) | ED50 | 3.4 |

Request the reported ED50 associated with CC(=O)NC(COC(F)F)C(=O)NCc1ccccc1 (stereo not shown)
4.2

Can you look up the measured ED50 of COC[C@@H](NC(C)=O)C(=O)NCc1ccccc1 [Lacosamide, reference compound] for me?
8.3

// ED50 lookup, key: `CC(=O)N[C@H](COC(F)F)C(=O)NCc1ccc(Cl)cc1`
2

Each recorded value in this set is attributed to patent EP1963277B1.
